pKd reference
system-tested: T1, EsCas13d, nuclease-dead (Eubacterium siraeum, UniProt B0MS50, R295A;H300A;R849A;H854A)
T1 sequence: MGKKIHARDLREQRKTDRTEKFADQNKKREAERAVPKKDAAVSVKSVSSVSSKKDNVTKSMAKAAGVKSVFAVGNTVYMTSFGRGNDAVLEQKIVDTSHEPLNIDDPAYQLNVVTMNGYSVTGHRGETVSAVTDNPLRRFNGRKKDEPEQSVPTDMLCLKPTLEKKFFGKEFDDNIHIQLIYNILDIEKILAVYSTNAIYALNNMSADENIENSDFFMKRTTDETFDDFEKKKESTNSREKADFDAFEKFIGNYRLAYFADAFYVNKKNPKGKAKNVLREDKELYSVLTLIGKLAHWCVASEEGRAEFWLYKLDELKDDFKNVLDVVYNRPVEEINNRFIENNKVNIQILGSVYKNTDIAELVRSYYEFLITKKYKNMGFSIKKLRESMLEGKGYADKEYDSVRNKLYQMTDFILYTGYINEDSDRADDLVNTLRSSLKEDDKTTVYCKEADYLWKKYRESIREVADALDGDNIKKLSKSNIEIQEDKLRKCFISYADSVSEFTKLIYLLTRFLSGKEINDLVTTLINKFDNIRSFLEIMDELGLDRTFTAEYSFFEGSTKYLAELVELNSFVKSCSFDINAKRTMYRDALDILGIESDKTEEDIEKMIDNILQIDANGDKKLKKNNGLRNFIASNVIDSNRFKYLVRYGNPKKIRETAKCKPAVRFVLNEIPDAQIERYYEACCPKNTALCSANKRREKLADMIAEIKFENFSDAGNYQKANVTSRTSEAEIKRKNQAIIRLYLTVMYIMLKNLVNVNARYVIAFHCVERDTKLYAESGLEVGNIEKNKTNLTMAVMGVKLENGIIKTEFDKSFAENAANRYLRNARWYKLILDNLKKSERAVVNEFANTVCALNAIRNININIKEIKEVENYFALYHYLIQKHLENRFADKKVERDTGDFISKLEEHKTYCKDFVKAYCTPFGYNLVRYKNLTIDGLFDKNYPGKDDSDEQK
measurement-protocol: crRNA (strand 1, pre-loaded); Mg2+; 40 mM Tris-HCl pH 7.5, 150 mM NaCl, 6 mM MgCl2, 1 mM DTT, 0.1% Tween-20, 0.2 mg/ml BSA; 25 C; 10 min per concentration, then washed
run-parameters: tags: His6-TwinStrep-SUMO cleaved; N-terminal SNAP kept (SNAP-Surface 488); label: 3' end held by stalled T7 RNA polymerase
// field semantics: pKd = negative decimal log of concentration (mol/L)

target 1 C21A,C22U (mixed) RNA 1: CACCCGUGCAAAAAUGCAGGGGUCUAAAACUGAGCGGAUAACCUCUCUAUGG RNA 2: GGGAAUGGAUCCACAUCUACGAAUUCGUAUAAUAGAGAGGUUAUCCGCUCACCGAGAUCGGAAGAGCACACGU	7.35
target 1 A1C,U8C (mixed) RNA 1: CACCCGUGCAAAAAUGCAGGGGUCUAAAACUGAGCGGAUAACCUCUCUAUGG RNA 2: GGGAAUGGAUCCACAUCUACGAAUUCGUACCAUAGAGAGGUUACCCGCUCCCCGAGAUCGGAAGAGCACACGU	8.09
target 1 MT 5'PFS GUA 3'PFS AAA (mixed) RNA 1: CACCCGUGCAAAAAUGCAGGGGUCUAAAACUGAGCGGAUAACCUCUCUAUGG RNA 2: GGGAAUGGAUCCACAUCUACGAAUUCGUACCAUAGAGAGGUUAUCCGCUCAAAAAGAUCGGAAGAGCACACGU	7.58
target 1 C2A,A20U (mixed) RNA 1: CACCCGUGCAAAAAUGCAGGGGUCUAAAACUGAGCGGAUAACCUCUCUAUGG RNA 2: GGGAAUGGAUCCACAUCUACGAAUUCGUACCUUAGAGAGGUUAUCCGCUAACCGAGAUCGGAAGAGCACACGU	7.52
target 1 del17,del19 (mixed) RNA 1: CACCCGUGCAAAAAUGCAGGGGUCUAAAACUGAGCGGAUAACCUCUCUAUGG RNA 2: GGGAAUGGAUCCACAUCUACGAAUUCGUACCAAAGAGGUUAUCCGCUCACCGAGAUCGGAAGAGCACACGU	7.30
target 1 C2A,C22A (mixed) RNA 1: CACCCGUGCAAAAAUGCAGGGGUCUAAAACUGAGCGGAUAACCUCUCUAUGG RNA 2: GGGAAUGGAUCCACAUCUACGAAUUCGUAACAUAGAGAGGUUAUCCGCUAACCGAGAUCGGAAGAGCACACGU	7.75
target 1 MT 5'PFS GGG 3'PFS UCU (mixed) RNA 1: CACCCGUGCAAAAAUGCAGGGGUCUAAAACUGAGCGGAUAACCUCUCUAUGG RNA 2: GGGAAUGGAUCCACAUCUACGAAUUCGGGCCAUAGAGAGGUUAUCCGCUCAUCUAGAUCGGAAGAGCACACGU	7.84
target 1 insC 3' of 9,insA 3' of 6 (mixed) RNA 1: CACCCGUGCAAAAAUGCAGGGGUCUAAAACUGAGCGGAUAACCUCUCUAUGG RNA 2: GGGAAUGGAUCCACAUCUACGAAUUCGUACCAUAGAGAGGUUACUCCAGCUCACCGAGAUCGGAAGAGCACACGU	7.85

Asked: Look up pKd for this binder: target 1 insC 3' of 18,insG 3' of 2 (mixed) RNA 1: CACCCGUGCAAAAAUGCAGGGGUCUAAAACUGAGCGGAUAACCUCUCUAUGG RNA 2: GGGAAUGGAUCCACAUCUACGAAUUCGUACCAUACGAGAGGUUAUCCGCUCGACCGAGAUCGGAAGAGCACACGU
Given back: 7.41

Asked: Look up pKd for this binder: target 1 MT 5'PFS UAC 3'PFS UCC (mixed) RNA 1: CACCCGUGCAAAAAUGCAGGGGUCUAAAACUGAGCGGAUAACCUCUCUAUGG RNA 2: GGGAAUGGAUCCACAUCUACGAAUUCUACCCAUAGAGAGGUUAUCCGCUCAUCCAGAUCGGAAGAGCACACGU
Given back: 7.90

Asked: Look up pKd for this binder: target 1 MT 5'PFS ACG 3'PFS UUG (mixed) RNA 1: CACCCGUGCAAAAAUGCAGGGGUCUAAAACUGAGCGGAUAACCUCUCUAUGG RNA 2: GGGAAUGGAUCCACAUCUACGAAUUCACGCCAUAGAGAGGUUAUCCGCUCAUUGAGAUCGGAAGAGCACACGU
Given back: 8.13

Asked: Look up pKd for this binder: target 1 MT 5'PFS UGC 3'PFS ACG (mixed) RNA 1: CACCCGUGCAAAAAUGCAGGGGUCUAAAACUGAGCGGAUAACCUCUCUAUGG RNA 2: GGGAAUGGAUCCACAUCUACGAAUUCUGCCCAUAGAGAGGUUAUCCGCUCAACGAGAUCGGAAGAGCACACGU
Given back: 7.79

Asked: Look up pKd for this binder: target 1 U3A,C4U (mixed) RNA 1: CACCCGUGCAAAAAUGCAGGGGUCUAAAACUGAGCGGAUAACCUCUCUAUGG RNA 2: GGGAAUGGAUCCACAUCUACGAAUUCGUACCAUAGAGAGGUUAUCCGUACACCGAGAUCGGAAGAGCACACGU
Given back: 7.43

Asked: Look up pKd for this binder: target 3 insU 3' of 22,insU 3' of 22 (mixed) RNA 1: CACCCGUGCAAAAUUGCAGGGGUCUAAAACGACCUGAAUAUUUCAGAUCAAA RNA 2: GGGAAUGGAUCCACAUCUACGAAUUCGUUUUUUUGAUCUGAAAUAUUCAGGUCUGCAGAUCGGAAGAGCACACGU
Given back: 7.62
